biological target: D(3) dopamine receptor (Homo sapiens); assay: DRUGMATRIX: Dopamine D3 radioligand binding (ligand: [3H] Spiperone); format: cell membranes, CHO, Membrane; settings: read-out: IC50
Sequence (P35462 whole entry): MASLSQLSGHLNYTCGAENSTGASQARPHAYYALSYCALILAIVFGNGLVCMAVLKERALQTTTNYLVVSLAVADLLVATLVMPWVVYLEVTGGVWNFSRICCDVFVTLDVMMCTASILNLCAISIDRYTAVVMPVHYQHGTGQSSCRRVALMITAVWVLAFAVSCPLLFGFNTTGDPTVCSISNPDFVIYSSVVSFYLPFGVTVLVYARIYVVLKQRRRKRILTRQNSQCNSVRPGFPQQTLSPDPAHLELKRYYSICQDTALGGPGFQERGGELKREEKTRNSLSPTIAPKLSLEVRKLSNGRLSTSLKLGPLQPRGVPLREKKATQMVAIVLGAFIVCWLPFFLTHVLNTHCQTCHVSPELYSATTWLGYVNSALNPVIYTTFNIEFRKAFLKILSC
Catalogue of IC50 values
State the answer as a number, implicitly in nM.

{"columns": ["Molecule", "IC50 [nM]"],
 "data": [
  ["CC[C@@H](CO)NC(=O)[C@@H]1C=C2c3cccc4c3c(cn4C)C[C@H]2N(C)C1 [METHYSERGIDE]", 172],
  ["CC(C)C[C@H]1C(=O)N2CCC[C@H]2[C@]2(O)O[C@](NC(=O)[C@@H]3C=C4c5cccc6[nH]c(Br)c(c56)C[C@H]4N(C)C3)(C(C)C)C(=O)N12", 0.596],
  ["CC(C)(C)c1ccc(S(=O)(=O)/C=C/C#N)cc1", 3460],
  ["CC(CCc1ccc(O)cc1)NCCc1ccc(O)c(O)c1 (stereo unspecified)", 4990],
  ["CN1C[C@H](C(=O)N[C@]2(C)O[C@@]3(O)[C@@H]4CCCN4C(=O)[C@H](Cc4ccccc4)N3C2=O)C[C@@H]2c3cccc4[nH]cc(c34)C[C@H]21 [DIHYDROERGOTAMINE]", 5.34]
]}

Give its IC50 value. Item: C#C[C@]1(O)CC[C@H]2[C@@H]3CCC4=Cc5oncc5C[C@]4(C)[C@H]3CC[C@@]21C 28900

----------
Catalogue of IC50 values
target: Epidermal growth factor receptor (Homo sapiens); experiment: DRUGMATRIX: Protein Tyrosine Kinase, EGF Receptor enzyme inhibition (substrate: Poly(Glu:Tyr)); type: cell-based, Insect cells; conditions: Not Active = under 50% inhibition at 10 µM; read-out: IC50
Sequence (P00533 whole entry): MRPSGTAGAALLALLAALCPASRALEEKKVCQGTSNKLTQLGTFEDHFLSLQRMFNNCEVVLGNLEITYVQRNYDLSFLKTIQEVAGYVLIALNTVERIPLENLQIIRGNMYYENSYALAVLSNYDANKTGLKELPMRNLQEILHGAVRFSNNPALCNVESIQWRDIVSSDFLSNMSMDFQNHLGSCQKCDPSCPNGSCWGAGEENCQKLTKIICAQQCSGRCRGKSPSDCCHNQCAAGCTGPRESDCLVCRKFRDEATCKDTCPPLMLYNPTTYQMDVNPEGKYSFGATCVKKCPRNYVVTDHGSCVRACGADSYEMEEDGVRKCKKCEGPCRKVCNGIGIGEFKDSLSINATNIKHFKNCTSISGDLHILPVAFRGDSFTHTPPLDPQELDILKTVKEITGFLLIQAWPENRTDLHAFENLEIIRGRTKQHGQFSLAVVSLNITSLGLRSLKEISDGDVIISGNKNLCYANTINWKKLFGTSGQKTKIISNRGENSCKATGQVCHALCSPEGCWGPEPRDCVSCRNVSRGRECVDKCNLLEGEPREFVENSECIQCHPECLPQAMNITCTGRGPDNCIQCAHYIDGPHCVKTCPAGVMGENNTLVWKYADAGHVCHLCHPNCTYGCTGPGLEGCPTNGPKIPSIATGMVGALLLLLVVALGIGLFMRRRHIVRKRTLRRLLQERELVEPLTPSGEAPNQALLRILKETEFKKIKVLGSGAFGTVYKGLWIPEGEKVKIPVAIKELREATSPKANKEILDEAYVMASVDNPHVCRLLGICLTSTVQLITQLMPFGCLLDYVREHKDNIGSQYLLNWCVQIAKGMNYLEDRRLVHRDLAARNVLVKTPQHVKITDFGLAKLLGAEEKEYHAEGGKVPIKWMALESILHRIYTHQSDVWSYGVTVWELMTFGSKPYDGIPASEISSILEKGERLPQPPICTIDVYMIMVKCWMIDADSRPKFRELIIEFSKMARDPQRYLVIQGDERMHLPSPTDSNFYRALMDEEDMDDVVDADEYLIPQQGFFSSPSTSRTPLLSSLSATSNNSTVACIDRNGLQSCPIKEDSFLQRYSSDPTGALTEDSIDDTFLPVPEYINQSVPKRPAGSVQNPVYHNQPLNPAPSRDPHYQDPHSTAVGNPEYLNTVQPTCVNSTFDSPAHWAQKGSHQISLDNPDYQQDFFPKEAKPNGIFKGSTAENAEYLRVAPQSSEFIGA
State the answer as a number, implicitly in µM.

Observe how each entry below is paired with its result.
{"columns": ["Compound", "Unit name", "Experimental value"],
 "data": [
  ["Oc1ccccc1O", "µM", 26],
  ["CC(CCc1ccc(O)cc1)NCCc1ccc(O)c(O)c1 (stereo unspecified)", "µM", 5.55]
]}

Give its IC50 value. Item: COc1cc(C(=O)NS(=O)(=O)c2ccccc2C)ccc1Cc1cn(C)c2ccc(NC(=O)OC3CCCC3)cc12 5.75

Give its IC50 value. Item: OCCN1CCN(CCCN2c3ccccc3Sc3ccc(C(F)(F)F)cc32)CC1 40.1

Give its IC50 value. Item: O=C(/C=C/c1ccc(O)c(O)c1)OCCc1ccccc1 1.01

Give its IC50 value. Item: C[C@@H]1C[C@H]2[C@@H]3CCC4=CC(=O)C=C[C@]4(C)C3=CC[C@]2(C)[C@H]1C(=O)CN1CCN(c2cc(N3CCCC3)nc(N3CCCC3)n2)CC1 20.4

----------
biological target: cGMP-specific 3',5'-cyclic phosphodiesterase (Homo sapiens); test: DRUGMATRIX: Phosphodiesterase PDE5 enzyme inhibition (substrate: [3H]cGMP + cGMP); type: tissue-based; conditions: platelet; Not Active = under 50% inhibition at 10 µM
Observable: IC50

Observe how each entry below is paired with its result.
{"columns": ["Compound", "IC50"],
 "data": [
  ["CC(C(=O)O)c1ccc(CC2CCCC2=O)cc1 (stereo not given)", "Not Active"],
  ["Clc1cc2c(cc1Cl)Oc1cc(Cl)c(Cl)cc1O2", "Not Active"],
  ["CC[C@H](C)C(=O)O[C@H]1C[C@@H](C)C=C2C=C[C@H](C)[C@H](CC[C@@H]3C[C@@H](O)CC(=O)O3)[C@H]21", "Not Active"],
  ["Cc1cn[nH]c1 [FOMEPIZOLE]", "Not Active"]
]}

Here's the next entry for you.
Give its IC50 value. Item: COc1ccc(CN2CCNCC2)c(OC)c1OC Not Active

----------
target: Sodium-dependent noradrenaline transporter (Homo sapiens, UniProt P23975); assay: DRUGMATRIX: Norepinephrine Transporter radioligand binding (ligand: [125I] RTI-55); type: cell membranes, MDCK, Membrane; conditions: mdck; Not Active = under 50% inhibition at 10 µM
Sequence (P23975 whole entry): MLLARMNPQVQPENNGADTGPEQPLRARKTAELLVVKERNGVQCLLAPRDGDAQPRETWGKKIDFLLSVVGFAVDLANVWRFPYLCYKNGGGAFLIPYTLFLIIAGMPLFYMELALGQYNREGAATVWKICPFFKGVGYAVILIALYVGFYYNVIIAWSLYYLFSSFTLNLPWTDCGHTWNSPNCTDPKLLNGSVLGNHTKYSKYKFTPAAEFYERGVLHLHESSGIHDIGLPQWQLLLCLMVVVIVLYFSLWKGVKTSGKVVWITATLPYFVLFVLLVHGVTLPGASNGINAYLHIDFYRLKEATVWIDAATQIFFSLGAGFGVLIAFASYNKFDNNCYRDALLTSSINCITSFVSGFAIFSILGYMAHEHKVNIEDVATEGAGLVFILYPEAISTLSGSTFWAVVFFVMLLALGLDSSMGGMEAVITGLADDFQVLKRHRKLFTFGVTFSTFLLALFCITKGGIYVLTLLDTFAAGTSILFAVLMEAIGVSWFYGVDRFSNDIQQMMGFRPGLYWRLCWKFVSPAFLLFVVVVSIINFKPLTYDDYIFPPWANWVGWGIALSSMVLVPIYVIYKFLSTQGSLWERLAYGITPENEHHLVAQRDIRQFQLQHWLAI
Observable: IC50

Observe how each entry below is paired with its result.
{"columns": ["Compound", "IC50"],
 "data": [
  ["O=c1cc(-c2ccccc2)oc2ccc3ccccc3c12", "Not Active"],
  ["C[C@H](C(=O)O)c1cccc(C(=O)c2ccccc2)c1", "Not Active"],
  ["C[C@@H]1C[C@H]2[C@@H]3CCC4=CC(=O)C=C[C@]4(C)C3=CC[C@]2(C)[C@H]1C(=O)CN1CCN(c2cc(N3CCCC3)nc(N3CCCC3)n2)CC1", "Not Active"],
  ["CC(C)C[C@H]1C(=O)N2CCC[C@H]2[C@]2(O)O[C@](NC(=O)[C@@H]3C=C4c5cccc6[nH]c(Br)c(c56)C[C@H]4N(C)C3)(C(C)C)C(=O)N12", "Not Active"],
  ["CC(=O)OCC(CCn1cnc2cnc(N)nc21)COC(C)=O", "Not Active"]
]}

Give its IC50 value. Item: CCCCCC[C@H]1C(=O)O[C@H](C)[C@H](NC(=O)c2cccc(NC=O)c2O)C(=O)O[C@@H](C)[C@@H]1OC(=O)CC(C)C [ANTIMYCIN A] Not Active

Give its IC50 value. Item: N=C(N)N/N=C/c1c(Cl)cccc1Cl Not Active

Give its IC50 value. Item: O=C(c1ccccc1Cl)N1CCC(Cc2ccccc2)CC1 Not Active

Give its IC50 value. Item: CN1C[C@H](C(=O)N[C@]2(C)O[C@@]3(O)[C@@H]4CCCN4C(=O)[C@H](Cc4ccccc4)N3C2=O)C[C@@H]2c3cccc4[nH]cc(c34)C[C@H]21 [DIHYDROERGOTAMINE] Not Active

Give its IC50 value. Item: CC(=O)O[C@]1(C(C)=O)CC[C@H]2[C@@H]3C=C(C)C4=CC(=O)CC[C@]4(C)[C@H]3CC[C@@]21C [MEGESTROL ACETATE] Not Active

Give its IC50 value. Item: CC(=O)O[C@H]1C[C@@H]2CC[C@@H]3[C@H](CC[C@@]4(C)[C@H]3C[C@H]([N+]3(C)CCCCC3)[C@@H]4OC(C)=O)[C@@]2(C)C[C@@H]1N1CCCCC1.[Br-] [VECURONIUM BROMIDE] Not Active

Give its IC50 value. Item: Nn1nnc2ccccc21 Not Active

Give its IC50 value. Item: CC(C(=O)O)c1ccc(CC2CCCC2=O)cc1 (stereo not drawn) Not Active

Give its IC50 value. Item: CCOC(N)=O Not Active

----------
molecular target: Receptor tyrosine-protein kinase erbB-2 (Homo sapiens, UniProt P04626); experiment: biochemical; format: cell-based, Insect cells; conditions: insect cells; note: in other assays of this panel Not Active means under 50% inhibition at 10 µM;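 note: inhibition of HER2 kinase enzyme activity, measured with Poly(Glu:Tyr) as the phosphorylation substrate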
Sequence (P04626 whole entry): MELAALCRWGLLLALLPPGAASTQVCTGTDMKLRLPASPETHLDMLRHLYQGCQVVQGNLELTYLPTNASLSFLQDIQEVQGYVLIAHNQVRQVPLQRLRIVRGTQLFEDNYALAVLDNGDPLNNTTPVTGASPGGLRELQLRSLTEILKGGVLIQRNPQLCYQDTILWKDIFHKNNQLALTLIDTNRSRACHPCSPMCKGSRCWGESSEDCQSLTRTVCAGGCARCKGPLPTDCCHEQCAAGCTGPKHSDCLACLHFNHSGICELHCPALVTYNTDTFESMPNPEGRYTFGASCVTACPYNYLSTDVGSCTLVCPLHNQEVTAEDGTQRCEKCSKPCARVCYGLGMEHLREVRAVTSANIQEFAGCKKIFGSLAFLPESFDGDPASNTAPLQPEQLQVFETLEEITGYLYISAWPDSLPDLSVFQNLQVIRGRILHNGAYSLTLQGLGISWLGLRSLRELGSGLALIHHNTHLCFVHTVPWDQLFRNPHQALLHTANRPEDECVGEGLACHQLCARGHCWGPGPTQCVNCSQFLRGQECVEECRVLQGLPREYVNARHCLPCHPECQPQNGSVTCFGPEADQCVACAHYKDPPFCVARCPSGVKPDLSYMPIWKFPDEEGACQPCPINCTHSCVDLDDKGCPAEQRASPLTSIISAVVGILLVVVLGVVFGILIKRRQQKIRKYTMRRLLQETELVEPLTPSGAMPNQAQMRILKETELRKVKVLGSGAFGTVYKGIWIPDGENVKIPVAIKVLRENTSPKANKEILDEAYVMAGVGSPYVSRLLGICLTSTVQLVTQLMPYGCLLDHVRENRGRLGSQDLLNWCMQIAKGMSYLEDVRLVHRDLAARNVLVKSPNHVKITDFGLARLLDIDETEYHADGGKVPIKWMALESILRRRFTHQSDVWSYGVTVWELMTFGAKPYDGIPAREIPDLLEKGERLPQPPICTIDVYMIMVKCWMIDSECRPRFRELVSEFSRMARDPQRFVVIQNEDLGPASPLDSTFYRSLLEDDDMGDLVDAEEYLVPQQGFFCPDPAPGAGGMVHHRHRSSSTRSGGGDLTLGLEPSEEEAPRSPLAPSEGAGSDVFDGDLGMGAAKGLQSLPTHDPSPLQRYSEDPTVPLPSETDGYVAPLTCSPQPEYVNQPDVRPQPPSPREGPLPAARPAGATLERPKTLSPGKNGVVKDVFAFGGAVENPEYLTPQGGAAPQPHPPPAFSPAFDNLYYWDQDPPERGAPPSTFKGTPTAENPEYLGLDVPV
Observable: IC50

Observe how each entry below is paired with its result.
{"columns": ["Compound", "Experimental value"],
 "data": [
  ["O=C(c1ccccc1Cl)N1CCC(Cc2ccccc2)CC1", "Not Active"],
  ["O=C(O)Cc1ccc(-c2ccccc2)cc1", "Not Active"],
  ["CS(=O)(=O)OCCCCOS(C)(=O)=O", "Not Active"],
  ["CCN[C@@H](C)Cc1cccc(C(F)(F)F)c1", "Not Active"],
  ["Nc1nc(N)nc(NC2CC2)n1", "Not Active"],
  ["C=C(C)[C@H]1Cc2c(ccc3c2O[C@@H]2COc4cc(OC)c(OC)cc4[C@@H]2C3=O)O1", "Not Active"]
]}

Give its IC50 value. Item: COc1cc(N)nc2[nH]c(-c3ccc(F)cc3)c(-c3ccncc3)c12 Not Active

Give its IC50 value. Item: CC(C)(CO)C(O)C(=O)NCCCO (stereo not given) Not Active

Give its IC50 value. Item: CCc1oc2ccccc2c1C(=O)c1cc(Br)c(O)c(Br)c1 Not Active

Give its IC50 value. Item: CN(Cc1cnc2nc(N)nc(N)c2n1)c1ccc(C(=O)N[C@@H](CCC(=O)O)C(=O)O)cc1 [METHOTREXATE] Not Active

Give its IC50 value. Item: CO[C@H]1[C@@H](O)[C@H](N)[C@@H](O[C@H]2O[C@H]([C@H](C)N)CC[C@H]2N)[C@H](O)[C@@H]1N(C)C(=O)CN Not Active

Give its IC50 value. Item: CN1C(=O)CN=C(c2ccccc2)c2cc(Cl)ccc21 Not Active

Give its IC50 value. Item: Clc1cc2c(cc1Cl)Oc1cc(Cl)c(Cl)cc1O2 Not Active

----------
Molecular target: Calcitonin receptor (Homo sapiens); note: in other assays of this panel Not Active means under 50% inhibition at 10 µM
Sequence (P30988 whole entry): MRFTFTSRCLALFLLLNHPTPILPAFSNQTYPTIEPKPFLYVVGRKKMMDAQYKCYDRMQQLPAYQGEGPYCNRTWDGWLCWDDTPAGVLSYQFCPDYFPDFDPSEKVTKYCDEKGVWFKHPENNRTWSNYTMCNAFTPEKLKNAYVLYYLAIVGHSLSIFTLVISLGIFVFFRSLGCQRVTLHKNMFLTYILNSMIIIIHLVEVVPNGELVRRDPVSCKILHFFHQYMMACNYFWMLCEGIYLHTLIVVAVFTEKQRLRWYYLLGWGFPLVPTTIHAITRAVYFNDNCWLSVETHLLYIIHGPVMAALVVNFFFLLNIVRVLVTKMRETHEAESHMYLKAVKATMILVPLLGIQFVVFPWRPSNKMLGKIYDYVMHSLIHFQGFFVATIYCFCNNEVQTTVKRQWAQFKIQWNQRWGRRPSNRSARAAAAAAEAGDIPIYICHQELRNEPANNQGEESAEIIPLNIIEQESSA
Assay type: cell membranes, Membrane
Settings: t47d
Observable: IC50

Observe how each entry below is paired with its result.
{"columns": ["Compound", "IC50"],
 "data": [
  ["Nc1nc(Cl)nc2c1ncn2[C@H]1C[C@H](O)[C@@H](CO)O1 [CLADRIBINE]", "Not Active"],
  ["COc1ccccc1OCC(O)CO (stereo unspecified) [GUAIFENESIN]", "Not Active"],
  ["C=C(C)[C@H]1Cc2c(ccc3c2O[C@@H]2COc4cc(OC)c(OC)cc4[C@@H]2C3=O)O1 [ROTENONE]", "Not Active"],
  ["Cc1cnc(C(=O)NCCc2ccc(S(=O)(=O)NC(=O)NC3CCCCC3)cc2)cn1 [GLIPIZIDE]", "Not Active"],
  ["CC(C)(C)NC[C@H](O)COc1nsnc1N1CCOCC1 [TIMOLOL]", "Not Active"]
]}

What is its IC50 for Calcitonin receptor (Homo sapiens)? Entry: NC[C@@H]1O[C@H](O[C@H]2[C@@H](O)[C@H](O[C@@H]3[C@@H](O)[C@H](N)C[C@H](N)[C@H]3O[C@H]3O[C@H](CN)[C@@H](O)[C@H](O)[C@H]3N)O[C@@H]2CO)[C@H](N)[C@@H](O)[C@@H]1O [FRAMYCETIN] Not Active

What is its IC50 for Calcitonin receptor (Homo sapiens)? Entry: COc1cc(N)nc2[nH]c(-c3ccc(F)cc3)c(-c3ccncc3)c12 Not Active

What is its IC50 for Calcitonin receptor (Homo sapiens)? Entry: Cc1cccc(Nc2cc(Cl)nc(SCC(=O)O)n2)c1C [PIRINIXIC ACID] Not Active

What is its IC50 for Calcitonin receptor (Homo sapiens)? Entry: CC(C)(Sc1cc(C(C)(C)C)c(O)c(C(C)(C)C)c1)Sc1cc(C(C)(C)C)c(O)c(C(C)(C)C)c1 [PROBUCOL] Not Active

What is its IC50 for Calcitonin receptor (Homo sapiens)? Entry: OCCN1CCN(CCCN2c3ccccc3Sc3ccc(C(F)(F)F)cc32)CC1 [FLUPHENAZINE] Not Active

What is its IC50 for Calcitonin receptor (Homo sapiens)? Entry: Cc1c(F)c(N2CCNC(C)C2)cc2c1c(=O)c(C(=O)O)cn2C1CC1 (stereo unspecified) [GREPAFLOXACIN] Not Active

What is its IC50 for Calcitonin receptor (Homo sapiens)? Entry: OCCN1CCN(CCCN2c3ccccc3Sc3ccc(Cl)cc32)CC1 [PERPHENAZINE] Not Active

What is its IC50 for Calcitonin receptor (Homo sapiens)? Entry: COc1ncnc(NS(=O)(=O)c2ccc(N)cc2)c1OC [SULFADOXINE] Not Active

What is its IC50 for Calcitonin receptor (Homo sapiens)? Entry: Clc1cc2c(cc1Cl)Oc1cc(Cl)c(Cl)cc1O2 [2,3,7,8-TETRACHLORODIBENZO-P-DIOXIN] Not Active

What is its IC50 for Calcitonin receptor (Homo sapiens)? Entry: CN(C(=O)CCCOc1ccc2[nH]c(=O)ccc2c1)C1CCCCC1 [CILOSTAMIDE] Not Active

What is its IC50 for Calcitonin receptor (Homo sapiens)? Entry: N=C(N)N/N=C/c1c(Cl)cccc1Cl [GUANABENZ] Not Active
